System: MALME-3M melanoma
assayComment: NCI tumour cell line growth inhibition, 48 h
measurementType: TGI

Value of measured TGI for the entry COCn1c(C)c(C)c2c(=O)oc(=O)[nH]c21 : > 100 µM

* * *

Here, each record is paired with measured TGI data.
Test system: MDA-MB-435
assayComment: NCI tumour cell line growth inhibition, 48 h
State just the number; it will be interpreted in µM.

Worked cases, TGI given:
Cc1cc(NS(=O)(=O)c2ccc(NC(=O)c3ccc4nc5ccccc5c(Nc5ccc(S(=O)(=O)N=C(N)N)cc5)c4c3)cc2)no1    35.3
CCCCc1ccc2nc(NC(=O)OC)[nH]c2c1    0.0379

Alright, here's another compound for you.
The compound identified as Cc1ccc(CCC(=O)Nc2ncc(Cc3cc(Cl)ccc3Cl)s2)o1 registered its TGI at 0.0949

* * *

Test system: CCRF-CEM leukemia
assayComment: NCI tumour cell line growth inhibition, 48 h; in the data active = GI50 below about 0.43 µM; inactive = the rest
Answer with one of the outcomes given here: true (active), false (inactive)

See these solved cases before continuing.
CC/C(=C(\c1ccccc1)c1ccc(OCCN(C)C)cc1)c1ccccc1    false
COc1ccc(C(=O)CC2(O)C(=O)Nc3c(Cl)ccc(Cl)c32)cc1 (stereo not drawn)    false
COc1cc([C@@H]2c3cc4c(cc3[C@H](OC3OC5COC(c6ccccc6)OC5C(O)C3O)[C@H]3COC(=O)[C@H]23)OCO4)cc(OC)c1OC (stereo partly drawn)    false
COc1ccc(CN2CCc3c(Cl)nc(N)nc3C2=O)c(OC)c1    false
Cc1cc(Cl)n2c(nc3ccccc32)c1C#N    true
c1ccc([CH2][Sn]([CH2]c2ccccc2)([S]c2cccc3cccnc23)[S]c2cccc3cccnc23)cc1    true
Cc1nc2c(cnn2-c2ccnc3c(C(F)(F)F)cccc23)c(=O)o1    false
CCN1CCN(C(=O)[C@]23CC[C@@H](C)[C@H](C)[C@@H]2C2=CC[C@@H]4[C@@]5(C)C/C(=C/c6cccnc6)C(=O)C(C)(C)[C@@H]5CC[C@@]4(C)[C@]2(C)CC3)CC1    false

## Task Assay result, entry O=C1CCC/C=C\C[C@H]2C=C(Cl)C(=O)/C2=C/C[C@H](CCCCC(F)(F)F)OC(=O)CCC/C=C\C[C@H]2C=C(Cl)C(=O)/C2=C/C[C@H](CCCCC(F)(F)F)O1 — outcome?
## Result true

## Task Identify the outcome logged in this assay for the compound shown: COc1cc[c]([Hg][Cl])cc1
## Result false

## Task Answer briefly: the call reported for COc1ccc(CCNc2nc3ccccc3c3[nH]c4ccccc4c23)cc1OC in this assay.
## Result false

* * *

# maps each entry to its TGI
Tested on: RXF 393 renal
assayComment: NCI tumour cell line growth inhibition, 48 h
Expressed in µM, but write only the number.

The following compounds have reported results that may help.
COc1c(O)c2ccccc2c2cc(O)ccc12    22.9
Oc1ccc2c(c1)-c1c(c3cc(O)ccc3n1CCN1CCOCC1)CC2    75.8
COc1ccc(C(=O)/C=C/c2ccc(Cl)cc2)cc1S(N)(=O)=O    3.97

TGI value, target or system RXF 393 renal, for CCSSCS(C)(=O)=O : 49.5

* * *

Test system: OVCAR-3 ovarian
assayComment: NCI tumour cell line growth inhibition, 48 h
Reported TGI is given for each of the following molecules.

Below: 3 molecules and their reported TGI.
O=C(CCCCCCc1nc2ccc(Br)cc2[nH]1)NO    1.61 µM
O=c1c(Cl)nsnc1Cl    17.1 µM
O=C1CCC/C=C\C[C@H]2C=C(Cl)C(=O)/C2=C/C[C@H](CCCCC(F)(F)F)OC(=O)CCC/C=C\C[C@H]2C=C(Cl)C(=O)/C2=C/C[C@H](CCCCC(F)(F)F)O1    0.485 µM

CCNC(=S)N/N=C/c1cc(OC)ccc1O on OVCAR-3 ovarian gives TGI = > 100 µM

Summary line: Clc1ccc(Cl)c(N/N=C\c2c[nH]c3ccccc23)c1 , OVCAR-3 ovarian, reported TGI = 26.1 µM

Lab note: molecule COC(=O)C(=O)C(C#N)c1cccc2ccccc12 (stereo not given) tested on OVCAR-3 ovarian; recorded TGI was > 100 µM

The value of TGI recorded for Oc1nc(N/N=C/c2c[nH]c3ccccc23)[nH]c1/C=C1\C=Nc2ccccc21 when tested on OVCAR-3 ovarian reads 29.6 µM

The value of TGI recorded for COC(=O)C1=Cc2cc3c(cc2[C@H](c2ccc4c(c2)OCO4)C1C(=O)OC)OCO3 (stereo not given in full) when tested on OVCAR-3 ovarian reads > 100 µM

Log: OVCAR-3 ovarian, molecule CCOC(=O)c1ccc(-c2cc(C)[nH]n2)[nH]1 , TGI = > 100 µM

# COC1CC(OC2OC(CO)C(O)C(O)C2O)/C(=C\C#N)C(O)C1OC (stereo not given) with OVCAR-3 ovarian: TGI is > 100 µM

* * *

System: IGROV1 ovarian
assayComment: NCI tumour cell line growth inhibition, 48 h
Entries annotated with measured TGI

Cc1c(-c2ccccc2)c(C#N)c2nnn(-c3ccccc3)c(=O)n12    > 100 µM

TGI value, target or system IGROV1 ovarian, for O=P(O)(O)OC1C(OP(=O)(O)O)C(OP(=O)(O)O)C(OP(=O)(O)O)C(OP(=O)(O)O)C1OP(=O)(O)O (configuration not stated) : > 2000 µM

For the compound NC(=O)C/C=C/CC(N)=O , the measured TGI on IGROV1 ovarian was > 100 µM

CC(=O)OC1COC(N2C(=O)C(=O)c3c(C)cc(Cl)nc32)C(OC(C)=O)C1OC(C)=O (configuration not stated) on IGROV1 ovarian gives TGI = > 100 µM

TGI for IGROV1 ovarian with input COc1ccc([C@H]2c3cc(OC)c(OC)cc3C=C(C=O)C2CO)cc1OC (some centres not stated) equals 8.89 µM

// returns TGI for COc1ccc(C(=O)CC2(O)C(=O)Nc3c(Cl)ccc(Cl)c32)cc1 (configuration not stated) with IGROV1 ovarian; value = > 100 µM

# value of TGI, IGROV1 ovarian, item COC(=O)C1=Cc2cc3c(cc2[C@H](c2ccc4c(c2)OCO4)C1C(=O)OC)OCO3 (some centres not stated) = > 100 µM

Assay IGROV1 ovarian, sample COC1OC(OC)C2C(c3c(C)cc(C)cc3C)=NOC12 (configuration not stated) , TGI read: > 100 µM

Recorded TGI for CC1(CCCC2(C)CCNC2=O)OCCO1 (configuration not stated) on IGROV1 ovarian was > 10 µM

* * *

Listing: TGI of selected molecules
System: UO-31 renal
assayComment: NCI tumour cell line growth inhibition, 48 h

O=C1CCCC1C(=O)Nc1ccc2ccccc2c1 (configuration not stated)    > 100 µM
COc1cc(Oc2nc3ccccc3nc2C(=O)O)cc(OC)c1OC    > 100 µM
CC(=O)NC1(C)CCC(C(C)(C)NC(C)=O)CC1 (configuration not stated)    > 100 µM
CCNc1nc(N)c(C(=O)c2ccc(Cl)cc2)s1    40.2 µM
[N-]=[N+]=Nc1ccc(S(=O)(=O)Oc2cc(OS(=O)(=O)c3ccc(N=[N+]=[N-])cc3)cc(OS(=O)(=O)c3ccc(N=[N+]=[N-])cc3)c2)cc1    > 100 µM
CC(=O)Nc1ccc2c(C(=O)O)c(C)c(=O)[nH]c2n1    > 100 µM
CCOP1(=O)OCC2OC(n3cnc4c(N)ncnc43)C(O)C2O1 (configuration not stated)    > 100 µM
CC(=O)Nc1ccc(S(=O)(=O)Nc2nnc(S(N)(=O)=O)s2)cc1    > 100 µM

Given item O=c1c(Cl)nsnc1Cl , the value recorded as its TGI is 74.5 µM

* * *

System: SN12C renal
assayComment: NCI tumour cell line growth inhibition, 48 h
measurementType: TGI

Reported TGI of O=C1CCCC1C(=O)Nc1ccc2ccccc2c1 (stereo unspecified) : > 100 µM

* * *

Tested on: NCI-H460 lung
assayComment: NCI tumour cell line growth inhibition, 48 h
Use 20 µM as the dividing line for TGI, with the line itself on the 1 side and lower values as -1.

COC1CC(OC2OC(CO)C(O)C(O)C2O)/C(=C\C#N)C(O)C1OC (stereo not drawn)    1

## Task Would you say C=C1C(=O)OC(CCCCCCCC)C1C(=O)O (stereo not drawn) shows TGI at minimum 20 µM?
## Result 1

## Task Quick check, TGI >= 20 µM? COc1cc2c(cc1OCCCC(=O)Nc1cc(C(=O)Nc3cc(C(=O)Nc4cc(C(=O)NCCCN(C)C)n(C)c4)n(C)c3)n(C)c1)N=C[C@@H]1CCCN1C2=O
## Result -1

## Task Is TGI at least 20 µM? Consider CCc1cc(C(N)=O)ccc1-n1nc(C(C)C)c2c(-n3cnc(-c4cnn(C)c4)c3)ccnc21
## Result 1

## Task Decide: is the reported value of TGI for O=C1C=Cc2c(Cl)sc(Cl)c21 equal to or greater than 20 µM?
## Result 1

## Task Decide: TGI of COc1cc(C2c3cc4c(cc3C(O)C3CCC(=O)N23)OCO4)cc(OC)c1OC (stereo not drawn) >= 20 µM?
## Result 1
